Could you please report measured SH2 binding enrichment for the items listed next?
system_under_test: Grb2 SH2 (UniProt P62993)
Sequence (P62993 whole entry, looked up, the tested form may be a part): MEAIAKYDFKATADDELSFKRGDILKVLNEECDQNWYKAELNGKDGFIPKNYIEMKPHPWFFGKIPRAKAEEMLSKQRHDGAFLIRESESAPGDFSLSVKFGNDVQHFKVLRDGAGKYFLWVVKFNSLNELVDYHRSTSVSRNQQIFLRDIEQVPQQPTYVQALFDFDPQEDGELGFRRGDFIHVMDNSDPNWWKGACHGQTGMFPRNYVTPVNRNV
protocol: SH2 binding enrichment of the phosphorylated peptide, bacterial display (enrichment ratio); higher = better substrate or ligand; peptides without Tyr show the background;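 also: peptide library displayed on the E. coli surface as eCPX fusions, selected cells deep-sequenced, score is each peptide's frequency after selection divided by its frequency in the input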
Form field (numeric): enter value without unit.

What does the record list as SH2 binding enrichment for DKITQYVEEVK [STX2_Y49] ?
0.918

What does the record list as SH2 binding enrichment for FDGKDYIALKE [HLA-A_Y147_N151K_YF] ?
0.919

What does the record list as SH2 binding enrichment for ACCLLYCGDVV [TUBA4A_Y319_R320C] ?
0.898

What does the record list as SH2 binding enrichment for CSDPSYVKQME [CDC5L_Y464_Y459C] ?
0.882

What does the record list as SH2 binding enrichment for VTAALYGRLYE [BTD_Y536] ?
0.899
